Reported ELISA score values for the following binders.
tested on: T1, human neonatal Fc receptor (hFcRn) (human, UniProt P55899 24-290; P61769 21-119)
T1 construct: Biotinylated in the ELISA, Octet and yeast assays; also called human FcRn; huFcRn
T1 sequence (P55899 24-290 limits assumed, chain 1 of 2): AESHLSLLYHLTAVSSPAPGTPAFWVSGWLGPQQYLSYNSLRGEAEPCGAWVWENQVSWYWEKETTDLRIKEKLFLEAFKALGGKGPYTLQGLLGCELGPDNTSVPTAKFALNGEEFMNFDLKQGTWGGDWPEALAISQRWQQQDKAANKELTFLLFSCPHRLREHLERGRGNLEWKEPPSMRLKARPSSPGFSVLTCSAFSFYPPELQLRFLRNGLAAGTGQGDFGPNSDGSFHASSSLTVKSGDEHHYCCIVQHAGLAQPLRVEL
T1 sequence (P61769 21-119 limits assumed, chain 2 of 2): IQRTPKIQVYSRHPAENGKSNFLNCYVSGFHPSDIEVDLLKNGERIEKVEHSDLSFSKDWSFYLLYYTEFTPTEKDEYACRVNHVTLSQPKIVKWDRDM
protocol text: phage ELISA pH 7.4;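 further: higher score means stronger binding and above about 3 to 5 exceeds background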
Lab note: record the figure alone, no unit after it.

stdin: What does the record list as ELISA score for L5 isolate with insertion SEQ ID NO: 408 (other) EPKSCDKTHTCPPCPAPELLGGPSVFLFPPKPKDTLMISRTPEVTCVVVDVSHEDPEVKFNWYVDGVEVHNAKTKPREEQYNSTYRVVSVLTVLHQDWLNGKEYKCKVSNKALPAPIEKTISKAKGQPREPQVYTLPPSRDELTKNQVSLTCLVKGFYPSDIAVEWESNGGCQKGWVFCGGGQPENNYKTTPPVLDSDGSFFLYSKLTVDKSRWQQGNVFSCSVMHEALHNHYTQKSLSLSPGK ?
stdout: 0.4

stdin: What does the record list as ELISA score for variant Fc-fragment Fc-5-113 (other, soluble elsewhere) EPKSCDKTHTCPPCPAPELLGGPSVFLFPPKPKDTLMISRTPEVTCVVVDVSHEDPEVKFNWYVDGVEVHNAKTKPREEQYNSTYRVVSVLTVLHQDWLNGKEYKCKVSNKALPAPIEKTISKAKGQPREPQVYTLPPSRDELTKNQVSLTCLVKGFYPSDIAVEWESNGGCQGMWTWCGGGQPENNYKTTPPVLDSDGSFFLYSKLTVDKSRWQQGNVFSCSVMHEALHNHYTQKSLSLSPGK ?
stdout: 0.7

For the next question, use this binder.
stdin: What does the record list as ELISA score for L6B isolate with insertion SEQ ID NO: 460 (other) EPKSCDKTHTCPPCPAPELLGGPSVFLFPPKPKDTLMISRTPEVTCVVVDVSHEDPEVKFNWYVDGVEVHNAKTKPREEQYNSTYRVVSVLTVLHQDWLNGKEYKCKVSNKALPAPIEKTISKAKGQPREPQVYTLPPSRDELGGCGEYNYVGGCGGTKNQVSLTCLVKGFYPSDIAVEWESNGQPENNYKTTPPVLDSDGSFFLYSKLTVDKSRWQQGNVFSCSVMHEALHNHYTQKSLSLSPGK ?
stdout: 0.4
